# dCas9 with SSAP activity (normalized) per entry
Test system: gene editing with dCas9
Assay: Screen of 322 new SSAP proteins, gene editing activity with dCas9 (Table 5)
Format: cell-based
Details: normalized
Description: 322 new SSAP proteins were identified from sequence data, synthesized, and screened for activity with Cas9 and dCas9. Gene editing activities are shown below in Table 5, followed by amino acid sequences of the proteins.
Lab note: jot down the number only; don't add units.

Worked set:
1) SSAP_193: SEQ ID NO: 362; Mesotoga sp. TolDC (protein, listed as Mesotoga sp.) KASEIASMVKKEDERRNHKPDPLAGIVKNLTSIKGEIANALPDAGITPERMIRIVVTLLRQNKSLAEAAMQNPASLLGAVMMAAQLGLDPTNGLDQCALVPRKGKVCFDIMYEGLVELGYRSDRMESIVARTVYEKDTFSLKYGLNEELVHIPYLDGDPGESKGYYMVGKLKGGGNIIVYMTKEQVHKIRDRYSVAYKAGLSGSRKDSPWFTSEDRMGEKTVVKAGFRWIPKSPIIRTALALDETAREASRLPMRN	−1.083
2) SSAP_84: SEQ ID NO: 253; Bet Fimbriiglobus ruber (protein, Fimbriiglobus ruber) TDIAHRSYSAPQLSLIRRTVAKDTNQDEFDLFIEICKQQGLDPFKKQIFAQVYNKDKADKRQIVIVTSIDGYRAKAQRCGDYRPAEEETRFEADAALKIRRQPMGSFVRSCGLQVRPGQGVVSRVGEARWDEFAPLDDAEFDWVDTGETWPDTGKPKKKKVAKSAKKTLKEGNWKNMPHVMLGKCAEAQALGGGGRKRSAACTSKRRWTRSTWT	1.563
3) SSAP_252: SEQ ID NO: 421; Bacteroides pyogenes DSM 20611 = JCM 6294 (protein, Bacteroides pyogenes) QVADPQSVLNSAVIAATLDLPINPNLGFAAIVPYNDRKSGKCIAQFQLMYKGLVELCLRSGQFASLIDEVVYEGQIVKKNKFTGEYIFDEDAKTSNKVIGYMAYFRLVNGFEKTFYMTSEEVTAHAKAYSQSFKSGYGVWKDNFDIMARKTVLKLLLSKYAPKSIEMQRAITFDQAAVKGDLTETNVDEAEIEYIDNESGSDKIKQAAEDAVIQSQQKTLL	−0.635

Entry SSAP_61: SEQ ID NO: 230 (protein) ATSLKRAVTGDGKPATVQQLLTNPKIKSQIALALPQHLTPERLTRIVLTEIRRTPALAKCKPESLLAAVMQCAQLGLEPGGSLGHAWLMPFKNEVQFIIGYRGMIDLARRSGQVLSIEARGVYESDTFHVSFGLEPDLTHQPDWDPADRGKLAFVYAVARLKDGGFQFDVMSRAEVEKIRAQSPAGKSGPWVTHFEEMAKKTVIRRLFKYLPVSVEMARAVGLDEAAERGEQSDAIDADCVIESEEEATPEEKGDSAA — recorded dCas9 with SSAP activity (normalized) = −0.804
